Reported MIC values, Proteus vulgaris OX 19.
Give a bare numeral; the unit µM is implied.

Please review the following examples before continuing.
CCc1cc2c(OC(=O)OCC(C)C)c(C(=O)N[C@@H](C(=O)N[C@@H]3C(=O)N4[C@@H]3SC(C)(C)[C@@H]4C(=O)O)c3ccccc3)cnc2cc1CN1CCOCC1    0.2
COc1cc2ncc(C(=O)N[C@@H](C(=O)N[C@@H]3C(=O)N4[C@@H]3SC(C)(C)[C@@H]4C(=O)O)c3ccccc3)c(OC(=O)OCC(C)C)c2cc1OC    0.39
CCOCc1cc2ncc(C(=O)N[C@@H](C(=O)N[C@@H]3C(=O)N4[C@@H]3SC(C)(C)[C@@H]4C(=O)O)c3ccccc3)c(OC(=O)OCC)c2cc1CC    0.39

The reported MIC of the molecule CCc1cc2c(OC(=O)OCC(C)C)c(C(=O)N[C@@H](C(=O)N[C@@H]3C(=O)N4[C@@H]3SC(C)(C)[C@@H]4C(=O)O)c3ccccc3)cnc2cc1COC was 0.39

Looking up CC(C)COC(=O)Oc1c(C(=O)N[C@@H](C(=O)N[C@@H]2C(=O)N3[C@@H]2SC(C)(C)[C@@H]3C(=O)O)c2ccccc2)cnc2ccc(C(C)C)cc12 , I see its MIC listed as 0.78

// MIC value for CC1(C)S[C@@H]2[C@H](NC(=O)[C@H](N)c3ccccc3)C(=O)N2[C@H]1C(=O)O [Ampicillin, reference compound] : 12.5

====

# Test system: Pseudomonas aeruginosa NCTC 10701
# experimental_details: In-vitro test, inhibitory concentration by dilution series
# Type: cell-based
# condition_notes: NCTC10701; IV = Pseudomonas aeruginosa NCTC 10701; step = concentration with no visible growth; read-out: Hemmkonzentration nach Verdünnung (Verdünnungsreihe) (converted)
The following molecules are shown together with reported log10(MIC) values.
In plain terms, each number is the log10 of measured MIC in µM.

CCOC(=O)Oc1c(C(=O)N[C@@H](C(=O)N[C@@H]2C(=O)N3[C@@H]2SC(C)(C)[C@@H]3C(=O)O)c2ccccc2)cnc2cc(COc3ccc(Br)cc3)c(CC)cc12    0.80
CCc1cc2c(OC(=O)OCC(C)C)c(C(=O)N[C@@H](C(=O)N[C@@H]3C(=O)N4[C@@H]3SC(C)(C)[C@@H]4C(=O)O)c3ccccc3)cnc2cc1COC(C)CC (stereo partly shown)    -0.11
CC(C)COC(=O)Oc1c(C(=O)N[C@@H](C(=O)N[C@@H]2C(=O)N3[C@@H]2SC(C)(C)[C@@H]3C(=O)O)c2ccccc2)cnc2ccc(C(C)C)cc12    0.19

We next turn to a different molecule, shown below.
So for CC1(C)S[C@@H]2[C@H](NC(=O)[C@H](N)c3ccccc3)C(=O)N2[C@H]1C(=O)O [Ampicillin, reference compound] , the logged log10(MIC) turned out to be 2.30

====

Entries with their measured MIC, system Staphylococcus aureus:
Kindly provide the numeric value in µM only, without the unit symbol.

CCc1cc2c(OC(=O)OCC(C)C)c(C(=O)N[C@@H](C(=O)N[C@@H]3C(=O)N4[C@@H]3SC(C)(C)[C@@H]4C(=O)O)c3ccccc3)cnc2cc1COc1ccc(Cl)c(C)c1    25
CCc1cc2c(OC(=O)OCC(C)C)c(C(=O)N[C@@H](C(=O)N[C@@H]3C(=O)N4[C@@H]3SC(C)(C)[C@@H]4C(=O)O)c3ccccc3)cnc2cc1CN1CCOCC1    3.12
CCc1cc2c(OC(=O)OCC(C)C)c(C(=O)N[C@@H](C(=O)N[C@@H]3C(=O)N4[C@@H]3SC(C)(C)[C@@H]4C(=O)O)c3ccccc3)cnc2cc1COc1ccc(C(C)=O)cc1    6.25

Measured on Staphylococcus aureus, CCOC(=O)Oc1c(C(=O)N[C@@H](C(=O)N[C@@H]2C(=O)N3[C@@H]2SC(C)(C)[C@@H]3C(=O)O)c2ccccc2)cnc2cc(COc3ccc(C)cc3)c(CC)cc12 has a documented MIC of 50

Recorded MIC for CCc1cc2c(OC(=O)OCC(C)C)c(C(=O)N[C@@H](C(=O)N[C@@H]3C(=O)N4[C@@H]3SC(C)(C)[C@@H]4C(=O)O)c3ccccc3)cnc2cc1COC(C)CC (some centres unmarked) on Staphylococcus aureus was 25
